Data provenance is PubChem BioAssay.

# tested system: Alpha-bungarotoxin (Bungarus multicinctus)
# assay name: compounds binding labelled alpha-BTX control protein – biochemical, small-molecule microarray, Alexa647 label, 635/667 nm fluorescence, artefact control for SMM control protein annotation, profiling panel (AID 1117)
# condition description: alpha-BTX-A647 binding fluorescence, higher = more signal
Where composite z-score equals or exceeds 0.5, the correct label is YES; where it does not, the label is NO.

Some solved entries appear below for comparison.
O=C1O[C@@H](c2ccccc2)[C@@H](c2ccccc2)N2[C@@H](c3ccc(O)cc3)[C@]3(C(=O)Nc4ccccc43)[C@@H](C(=O)NC[C@H](O)c3ccccc3)[C@H]12 : NO
O=C1O[C@H](c2ccccc2)[C@H](c2ccccc2)N2[C@H]1[C@@H](C(=O)NC[C@H](O)c1ccccc1)[C@]1(C(=O)Nc3ccc(C#CC4=CCCCC4)cc31)[C@H]2c1ccc(O)cc1 : YES
CCCNC(=O)[C@@]1(C)c2ccccc2C(=O)N(Cc2cc(C(F)(F)F)cc(C(F)(F)F)c2)[C@H]1c1ccc(CO)cc1 : YES
CCCC[C@@H]1C[C@H]1[C@@H](NC(=O)c1ccccc1)c1ccccc1 : NO

Say whether "COCCn1c(C(=O)N(C)C)cc2c1C[C@H]1CN(C(=O)c3ccccc3)[C@@](Cc3ccc(F)cc3)(C(=O)OC)[C@@H]21" shows composite z-score of 0.5 or more.
NO

Say whether "O=C1c2ccccc2[C@@]2(Cc3ccccc3N(Cc3ccccc3)C2=O)[C@H](c2ccc(CO)cc2)N1Cc1ccccc1C(F)(F)F" shows composite z-score of 0.5 or more.
NO

Say whether "O=C1[C@H]2C=C(Br)[C@H](C[C@@H]2OCCOCCO)[C@@]12CO2" shows composite z-score of 0.5 or more.
YES

Say whether "COc1ccc([Si](C)(C)[C@H]2[C@H](CC(=O)N3CCC[C@H]3CO)O[C@@]3(C(=O)N(c4ccccc4)c4ccccc43)[C@@H]2C)cc1" shows composite z-score of 0.5 or more.
NO

Say whether O=C1OCCC=C[C@H]2OC34C=CCN(c5ccc6ccccc6c5)C(=O)[C@H]3N(CCCCCCO)C(=O)[C@@H]4C12 (some centres undefined) shows composite z-score of 0.5 or more.
NO

----------
# assay name: viability profiling in MM1S myeloma cells – cell-based, resazurin fluorescence, basal, 24 h, PK04 Diversity Set, profiling panel (AID 1174);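 also: MM1S multiple myeloma cell line; test concentration not given here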
# condition description: higher = more signal, called active from +8 up or from −8 down
reported endpoint: z-score
When you answer, write just the number.

For the compound shown here, "COc1ccc(C#Cc2ccc3c(c2)[C@]2(C(=O)N3)[C@H](C(=O)N3CCN(c4ncccn4)CC3)[C@H]3C(=O)O[C@H](c4ccccc4)[C@H](c4ccccc4)N3[C@@H]2c2ccc(O)cc2)cc1" , give the reported z-score.
0.0492

For the compound shown here, "C[n+]1ccc2ccc(O)cc2c1" , give the reported z-score.
0.242

For the compound shown here, "C=CC[C@]1(C(=O)O)N=C(c2ccc(OCCCO)cc2)O[C@H]1c1ccccc1CN=[N+]=[N-]" , give the reported z-score.
-2.6

For the compound shown here, "CCOC(=O)C1=CC[C@@H](c2ccccc2)N(S(=O)(=O)c2ccc(C)cc2)[C@H]1c1ccc(C#N)cc1" , give the reported z-score.
-0.116

For the compound shown here, CN1C(=O)C2C=CC(C(O)C(C)(C)C)N(Nc3ccccc3)C2C1=O (stereo not given) , give the reported z-score.
-0.281

For the compound shown here, CCOC1=C2C(c3ccc(C)cc3)N(S(=O)(=O)c3ccc(C)cc3)CC2n2c(=O)n(-c3ccccc3)c(=O)n2C1 (stereo not given) , give the reported z-score.
-0.932

For the compound shown here, "COC(=O)[C@@]1(Cc2ccc(F)cc2)[C@H]2c3cc(C(=O)N(C)C)n(CCCNc4ccc(C(F)(F)F)cc4Cl)c3C[C@H]2CN1C(=O)c1ccccc1" , give the reported z-score.
-1.98

For the compound shown here, O=C1OCC=C[C@H]2OC34C=CCN(c5ccc(Cl)cc5)C(=O)[C@H]3N(CCCO)C(=O)[C@@H]4[C@@H]12 (stereo not given in full) , give the reported z-score.
-0.393

For the compound shown here, "CN(C)CCCC[C@@H]1NC(=O)[C@@H]2C[C@H](C(=O)NCc3ccc(F)cc3)[C@H](c3cccc(OCCO)c3)N2C1=O" , give the reported z-score.
0.0458

For the compound shown here, "Cc1ccc(N2C(=O)c3ccccc3[C@](C)(C(=O)NCCN3CCOCC3)[C@@H]2c2ccc(CO)cc2)nc1" , give the reported z-score.
0.438

For the compound shown here, O=C1OCCC/C=C\[C@H]2OC34C=CCN(CCN5CCOCC5)C(=O)[C@H]3N(CCO)C(=O)[C@@H]4C12 (stereo not given in full) , give the reported z-score.
-0.562
